B1: CPEB3 Ribozyme (parent)
chain: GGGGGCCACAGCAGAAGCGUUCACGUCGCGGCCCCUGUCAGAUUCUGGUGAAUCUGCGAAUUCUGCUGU

Variants of: B1
ASSAY_METHOD_TEXT: self-cleavage, relative activity (ratio to wild type); higher = more cleavage; co-transcriptional
Param threshold (0.7) applies to self-cleavage; output Condition met when value >= threshold, Condition not met when value < threshold.

Consider the worked cases shown below.
| SEQUENCE_RECORD | LABEL |
| --- | --- |
| GGGGGCCACAGCAGAAGCGUUCAUGUCGCGGCCCCUGUCAGAUUCUGGUUAAUCUGCGAAUUCUGCUGU [C24U G50U] | Condition met |
| GGGGGCCAUAGCAGAAGCGUUCACGUCGCGGCCCCUGUCAUAUUCUGGUGAAUCUGCGAAUUCUGCUGU [C9U G41U] | Condition met |
| GGGGGCCAUAGCAGAAGCGUUCACGUCGCGGCCUCUGUCAGAUUCUGGUGAAUCUGCGAAUUCUGCUGU [C9U C34U] | Condition met |
| GGGGGCCACAGCACAAGCGUUCACGUCGCGGCCCCUGUCAGAUUCUGGUGAACCUGCGAAUUCUGCUGU [G14C U53C] | Condition not met |

Hi, just wondering whether GGGGGCCGCAGCAGAAGCGUUCACGUCGCGGCCCCUGUCAGAUGCUGGUGAAUCUGCGAAUUCUGCUGU [A8G U44G] shows self-cleavage of 0.7 or higher. Condition not met

Please check the record GGGGGCCACAGCAGAAGCGUUCACGUCCCGGCCCCUGUCAGGUUCUGGUGAAUCUGCGAAUUCUGCUGU [G28C A42G] and state if its self-cleavage is at or above 0.7. Condition not met

Check this variant for self-cleavage at or above 0.7: GGGGGCCACAGCAGAAGCGUUCACGUCGCGGCCCCUGUCAGAUGCUGGUGAAUCUGCGAAUUCUGAUGU [U44G C66A] Condition met

Record GGGGGCCACAGCAGAAGCGUUCUCGUCGCGGCCCCUGUCAGAGUCUGGUGAAUCUGCGAAUUCUGCUGU [A23U U43G] ; criterion: self-cleavage no lower than 0.7. Met? Condition met

Assess whether reported self-cleavage for GGGGGCCACAGCAGAAGCGUUCACGUCGCGGCCCCCGUCAGAUUCUGGUGAAUCUGCGAAUUCUGCUGA [U36C U69A] sits at 0.7 or higher. Condition met

Could you tell me if the measured self-cleavage of GGGGGCCACAGCAGAAGCGUUCACGUCGCGGCCCCUGUCAGAGUCUGGUGAAUCUGCGAAUUCUGCUGA [U43G U69A] reaches 0.7 or more? Condition met

Given GGGGGGCACAGCAGAAGCGUUCACGUCGCGGCCCCUGUCAGAUUCUGGUGGAUCUGCGAAUUCUGCUGU [C6G A51G] , state whether its self-cleavage is at least 0.7. Condition not met

Evaluate GGGGGCCACAGCAGAAGCUUUCACGUCGCGGCCCCUGUCAGAUUCUGGUGAAUCUGAGAAUUCUGCUGU [G19U C57A] : self-cleavage at minimum 0.7? Condition not met

Decide: is the reported value of self-cleavage for GGGGGCCACAGCAGAAGCGUUCACGUCGCGGCCCCCGACAGAUUCUGGUGAAUCUGCGAAUUCUGCUGU [U36C U38A] equal to or greater than 0.7? Condition not met

Reported self-cleavage reaches at least 0.7 for GGGGGCCACAGCAGAAGCGUCCACGUCGCGGCCCCUUUCAGAUUCUGGUGAAUCUGCGAAUUCUGCUGU [U21C G37U] ? Condition not met

Exam item: decide whether the reported self-cleavage for GGGGGCGACAGCAGAAGCGUUCACGUCACGGCCCCUGUCAGAUUCUGGUGAAUCUGCGAAUUCUGCUGU [C7G G28A] is at least 0.7. Condition not met

For this variant, is measured self-cleavage 0.7 or higher? GGGGGCCACAGCAGAAGCGUUCACGUCGCGGCCCGGGUCAGAUUCUGGUGAAUCUGCGAAUUCUGCUGU [C35G U36G] Condition not met
